These entries and their values trace back to paper PMC11413503.

- tested system: CAV1.2 (Homo sapiens)
pIC50: −log10 of the molar value.
value kind: pIC50

input: Which pIC50 is listed for Cn1cnc2c(=O)n(-c3cccnc3C3CC3)c3cc(Cl)ccc3c21 ?
output: < 5.00

---

- tested system: HRH2 (Homo sapiens)
- Sequence (P25021 whole entry, species assumed): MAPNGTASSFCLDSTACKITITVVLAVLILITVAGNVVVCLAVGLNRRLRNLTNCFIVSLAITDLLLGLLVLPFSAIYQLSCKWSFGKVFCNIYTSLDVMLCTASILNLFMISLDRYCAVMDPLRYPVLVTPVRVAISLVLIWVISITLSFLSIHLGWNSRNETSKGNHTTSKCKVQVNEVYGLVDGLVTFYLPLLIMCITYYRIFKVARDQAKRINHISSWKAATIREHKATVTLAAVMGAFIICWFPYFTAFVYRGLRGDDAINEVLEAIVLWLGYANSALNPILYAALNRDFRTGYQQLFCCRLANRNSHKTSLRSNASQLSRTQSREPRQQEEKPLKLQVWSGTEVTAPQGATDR
- assay summary: Mini-profiling panel, GPCR
- test parameters: GPCR Targets; read-out: HRH2 Antagonism IC50
pIC50: −log10 of the molar value.
value kind: pIC50

input: Which pIC50 is listed for Cn1cnc2c(=O)n(-c3cccnc3C3CC3)c3cc(Cl)ccc3c21 ?
output: < 5.00

---

- tested system: DRD2S (Homo sapiens, UniProt P14416)
- Sequence (P14416 1-414 isoform P14416-2): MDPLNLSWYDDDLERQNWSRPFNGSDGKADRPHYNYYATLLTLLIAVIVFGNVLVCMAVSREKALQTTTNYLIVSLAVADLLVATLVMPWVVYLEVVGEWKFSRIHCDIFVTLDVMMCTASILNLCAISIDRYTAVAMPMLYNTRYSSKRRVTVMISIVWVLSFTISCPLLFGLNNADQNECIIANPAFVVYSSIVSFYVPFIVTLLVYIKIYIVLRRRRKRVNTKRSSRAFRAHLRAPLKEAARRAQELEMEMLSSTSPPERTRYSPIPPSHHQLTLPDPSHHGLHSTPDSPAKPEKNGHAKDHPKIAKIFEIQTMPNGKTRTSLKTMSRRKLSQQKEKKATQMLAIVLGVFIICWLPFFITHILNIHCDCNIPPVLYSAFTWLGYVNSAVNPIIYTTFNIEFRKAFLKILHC
- assay summary: Mini-profiling panel, GPCR
pEC50: −log10 of the molar value.
value kind: pEC50

input: Which pEC50 is listed for Cn1cnc2c(=O)n(-c3cccnc3C3CC3)c3cc(Cl)ccc3c21 ?
output: < 5.00

---

- tested system: MAT2A (Homo sapiens, UniProt P31153)
- Sequence (P31153 whole entry): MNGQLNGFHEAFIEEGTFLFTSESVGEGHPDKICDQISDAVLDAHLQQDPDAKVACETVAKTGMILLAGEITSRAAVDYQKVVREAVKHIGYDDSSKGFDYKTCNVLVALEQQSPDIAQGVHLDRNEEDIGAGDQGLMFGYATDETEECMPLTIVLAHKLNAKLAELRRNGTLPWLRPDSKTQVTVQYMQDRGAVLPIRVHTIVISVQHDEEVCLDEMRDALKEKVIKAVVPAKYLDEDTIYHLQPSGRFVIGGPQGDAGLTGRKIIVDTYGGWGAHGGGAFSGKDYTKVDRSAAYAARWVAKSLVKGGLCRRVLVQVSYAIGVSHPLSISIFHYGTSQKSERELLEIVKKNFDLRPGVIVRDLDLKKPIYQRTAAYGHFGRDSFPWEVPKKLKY
value kind: Kd (nM)
Give just the numeric value; nM need not be written.

input: Observed Kd on MAT2A (Homo sapiens, UniProt P31153) for Cn1cnc2c(=O)n(-c3cccnc3C3CC3)c3cc(Cl)ccc3c21 [SCR‐7952] , please.
output: 0.56

---

- tested system: KvLQT1/mink (Homo sapiens)
- Sequence (P51787 whole entry): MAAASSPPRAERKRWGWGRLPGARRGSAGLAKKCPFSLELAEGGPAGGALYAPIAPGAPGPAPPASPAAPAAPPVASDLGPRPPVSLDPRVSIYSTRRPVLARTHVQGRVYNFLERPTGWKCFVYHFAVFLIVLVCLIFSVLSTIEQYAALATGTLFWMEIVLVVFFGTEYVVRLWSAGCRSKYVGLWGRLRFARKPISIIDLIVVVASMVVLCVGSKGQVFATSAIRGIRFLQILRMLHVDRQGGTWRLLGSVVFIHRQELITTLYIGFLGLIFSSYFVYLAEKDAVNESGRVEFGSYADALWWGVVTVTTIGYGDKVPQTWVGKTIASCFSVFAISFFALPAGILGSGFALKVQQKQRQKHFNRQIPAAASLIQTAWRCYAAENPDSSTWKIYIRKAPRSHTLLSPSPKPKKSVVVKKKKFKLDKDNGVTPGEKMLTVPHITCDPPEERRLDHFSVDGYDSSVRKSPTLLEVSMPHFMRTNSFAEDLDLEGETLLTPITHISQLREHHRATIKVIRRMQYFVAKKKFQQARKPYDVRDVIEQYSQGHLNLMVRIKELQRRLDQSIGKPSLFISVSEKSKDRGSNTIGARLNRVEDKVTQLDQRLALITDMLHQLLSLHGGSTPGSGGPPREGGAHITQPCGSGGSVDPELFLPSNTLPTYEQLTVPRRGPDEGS
- assay summary: Mini-profiling panel, ion channel
value kind: IC50

input: Observed IC50 on KvLQT1/mink (Homo sapiens) for Cn1cnc2c(=O)n(-c3cccnc3C3CC3)c3cc(Cl)ccc3c21 , please.
output: > 10 µM

---

- tested system: MAT2A (Homo sapiens)
value kind: Ki (nM)
Give just the numeric value; nM need not be written.

input: Observed Ki on MAT2A (Homo sapiens) for Cn1cnc2c(=O)n(-c3cccnc3C3CC3)c3cc(Cl)ccc3c21 , please.
output: 14.5

---

- Test system: HCT116 MTAP−/− cells
- assay summary: Intracellular SAM inhibition assay
- Assay type: cell-based
- test parameters: Homo sapiens, HCT-116, 6 h, read-out: IC50, cellular SAM levels
value kind: pIC50
Note: pIC50 values are expressed as the negative base-10 logarithm of concentration in M.

input: Observed pIC50 on HCT116 MTAP−/− cells for COc1ccc(-c2c(Nc3ccccn3)[nH]c3c(C4=CCCCC4)c(-c4ccccc4)nn3c2=O)cc1 [AG‐270, reference compound] , please.
output: 8.24

---

- tested system: EDNRA (Homo sapiens)
- Sequence (P25101 21-427): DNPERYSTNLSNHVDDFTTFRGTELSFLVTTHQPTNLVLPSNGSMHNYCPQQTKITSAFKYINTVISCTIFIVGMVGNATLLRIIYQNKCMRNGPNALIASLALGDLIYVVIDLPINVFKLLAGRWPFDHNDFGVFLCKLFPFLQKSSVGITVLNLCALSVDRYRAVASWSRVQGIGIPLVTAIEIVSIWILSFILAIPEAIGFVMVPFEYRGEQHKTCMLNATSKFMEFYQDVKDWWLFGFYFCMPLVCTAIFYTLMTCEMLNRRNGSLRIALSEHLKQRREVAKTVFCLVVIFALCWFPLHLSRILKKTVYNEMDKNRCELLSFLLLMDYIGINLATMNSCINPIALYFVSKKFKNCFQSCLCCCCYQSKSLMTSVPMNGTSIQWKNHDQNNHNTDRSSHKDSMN
- assay summary: Mini-profiling panel, GPCR
- test parameters: GPCR Targets; read-out: EDNRA Antagonism IC50
value kind: IC50

input: Which IC50 is listed for Cn1cnc2c(=O)n(-c3cccnc3C3CC3)c3cc(Cl)ccc3c21 ?
output: > 10 µM
